Cited source for all entries: the Human Domainome abundance scans (Beltran et al. 2025)

B1: Chromodomain-helicase-DNA-binding protein 7, residues 2564 to 2605; numbered along this chain, Q9P2D1 (parent)
chain: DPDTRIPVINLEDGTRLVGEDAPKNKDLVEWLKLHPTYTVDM

Variants of: B1
EXPERIMENT: abundance fitness (aPCA) (normalised: wild type 0, dead -1); higher = more abundant; growth selection in yeast, the domain comes from the species named
TEST_PARAMETERS: Homo sapiens
Quick rule: abundance fitness of at least -0.3 means MET, below that means NOT MET.

Worked set:
CHANGE | GROUP_LABEL
P36E | NOT MET
P23Y | NOT MET

Quick check: does `G14S` have abundance fitness greater than or equal to -0.3?
MET

Quick check: does `N25M` have abundance fitness greater than or equal to -0.3?
MET
